Attribution: paper PMC4632126

Test system: human red blood cells (hRBCs)
Test: Hemolytic activity
Settings: concentration causing 5% hemolysis of human red blood cells; about 1% hRBC in PBS, 37 °C, 1 h, OD 576 nm
Where no end group is shown, it is not given here.
# MHC (minimum hemolytic concentration) per entry
measurementName: MHC (minimum hemolytic concentration)

> print(dat)
                           substance  testvalue
1  GLWKGKLGLWKGKLGLWKGKL-NH2 [GG3s2]    >128 µM
2    GKLWLKGGKLWLKGGKLWLKG-NH2 [GG3]    >128 µM
3           GKLWLKGGKLWLKG-NH2 [GG2]    >128 µM

###

System: 3 gram-positive strains tested
Conditions: MHC/GM for 3 gram-positive strains; >128 counted as 256 μM
Where no end group is shown, it is not given here.
Rule: measured TI (therapeutic index), gram-positive below 3 gets yes; anything equal to or greater than 3 gets no.

> print(dat)
                                substance  discretelabel
1  AKLWLKAAKLWLKAAKLWLKAAKLWLKA-NH2 [AA4]            yes
2                AKLWLKAAKLWLKA-NH2 [AA2]             no
3       GLWKGKLGLWKGKLGLWKGKL-NH2 [GG3s2]             no
4                GKLWLKGGKLWLKG-NH2 [GG2]            yes
5       AKLWALKAKLWALKAKLWALK-NH2 [AA3s1]            yes
6       GKLWGLKGKLWGLKGKLWGLK-NH2 [GG3s1]            yes
7         AKLWLKAAKLWLKAAKLWLKA-NH2 [AA3]            yes
8         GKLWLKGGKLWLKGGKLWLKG-NH2 [GG3]             no
